# System name: Dihydrofolate reductase; T. gondii vs rat (Toxoplasma gondii) (UniProt Q920D2+Q07422)
# Protocol notes: Ratio of binding to rat liver and Toxoplasma gondii dihydrofolate reductase
Please respond with reported Ratio for every item in the list.

For COc1cc(NCc2c[nH]c3nc(N)nc(O)c23)cc(OC)c1OC , write its Ratio.
> 2.4

For Nc1nc(O)c2c(CNc3cc(Cl)ccc3Cl)c[nH]c2n1 , write its Ratio.
> 38

For COc1cc(N(C)Cc2c[nH]c3nc(N)nc(O)c23)cc(OC)c1OC , write its Ratio.
> 2

Kindly give each listed record's Ratio.
1. Nc1nc(O)c2c(CNc3cccc(Cl)c3)c[nH]c2n1
2. Nc1nc(O)c2c(CNc3cc(Cl)cc(Cl)c3)c[nH]c2n1
3. Nc1nc(O)c2c(CNc3ccc(Cl)cc3Cl)c[nH]c2n1

> 7
> 15.4
> 7

Kindly give each listed record's Ratio.
1. COc1ccc(NCc2c[nH]c3nc(N)nc(O)c23)c(OC)c1
2. COc1cc(NCc2c[nH]c3nc(N)nc(O)c23)cc(OC)c1
3. COc1ccc(OC)c(N(C)Cc2c[nH]c3nc(N)nc(O)c23)c1

> 2.3
> 8
> 6

Kindly give each listed record's Ratio.
1. COc1ccc(OC)c(NCc2c[nH]c3nc(N)nc(O)c23)c1
2. COc1cc(OC)cc(N(C)Cc2c[nH]c3nc(N)nc(O)c23)c1

["> 21", "> 21"]

----------
Please respond with reported pIC50 for every item in the list.
# System name: Dihydrofolate reductase (Pneumocystis carinii)
# Sequence (P16184 whole entry): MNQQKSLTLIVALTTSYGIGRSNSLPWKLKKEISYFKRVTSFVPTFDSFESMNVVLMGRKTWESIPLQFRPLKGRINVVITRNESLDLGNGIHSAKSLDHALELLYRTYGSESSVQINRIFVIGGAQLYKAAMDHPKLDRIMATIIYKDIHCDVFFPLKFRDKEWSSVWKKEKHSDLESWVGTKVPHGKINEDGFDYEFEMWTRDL
pIC50: −log10 of the molar value.

Worked cases, pIC50 given:
For COc1ccc(OC)c(NCc2c[nH]c3nc(N)nc(O)c23)c1 , write its pIC50.
< 4.33

For COc1cc(NCc2c[nH]c3nc(N)[nH]c(=O)c23)cc(OC)c1 , write its pIC50.
< 4.70

For COc1cc(NCc2c[nH]c3nc(N)nc(O)c23)cc(OC)c1OC , write its pIC50.
< 4.66

For Nc1nc(O)c2c(CNc3cc(Cl)ccc3Cl)c[nH]c2n1 , write its pIC50.
< 4.60

For Nc1nc2[nH]cc(CNc3cccc(Cl)c3)c2c(=O)[nH]1 , write its pIC50.
< 4.59

New cases:
For COc1cc(OC)cc(N(C)Cc2c[nH]c3nc(N)nc(O)c23)c1 , write its pIC50.
< 4.06

----------
# System name: UniProtKB C3SWJ7
# Sequence (C3SWJ7 whole entry): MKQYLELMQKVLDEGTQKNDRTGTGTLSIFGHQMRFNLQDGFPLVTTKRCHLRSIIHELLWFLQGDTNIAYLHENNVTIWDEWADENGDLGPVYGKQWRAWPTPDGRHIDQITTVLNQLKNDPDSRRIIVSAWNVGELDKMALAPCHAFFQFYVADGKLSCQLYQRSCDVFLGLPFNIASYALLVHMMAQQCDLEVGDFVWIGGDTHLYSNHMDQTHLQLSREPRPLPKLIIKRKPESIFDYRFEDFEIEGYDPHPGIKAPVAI
Measured attribute: IC50

For Nc1nc(O)c2c(CNc3ccc(C(=O)N[C@@H](CCC(=O)O)C(=O)O)cc3)c[nH]c2n1 , write its IC50.
> 120 µM

----------
Thymidylate synthase (Homo sapiens, UniProt P04818): recorded IC50 for assorted compounds
Sequence (P04818 whole entry): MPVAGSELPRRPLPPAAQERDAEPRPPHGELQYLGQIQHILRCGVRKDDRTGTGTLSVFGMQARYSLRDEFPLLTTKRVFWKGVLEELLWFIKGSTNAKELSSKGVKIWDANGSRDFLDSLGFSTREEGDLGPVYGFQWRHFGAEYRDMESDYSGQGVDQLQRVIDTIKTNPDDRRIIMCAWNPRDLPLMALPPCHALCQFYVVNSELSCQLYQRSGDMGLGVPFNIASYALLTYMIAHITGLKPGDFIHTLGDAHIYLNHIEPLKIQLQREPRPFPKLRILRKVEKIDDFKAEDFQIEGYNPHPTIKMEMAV
Remember to put the unit after the number in your answer.

For Thymidylate synthase (Homo sapiens, UniProt P04818), give IC50 of the listed compound: Nc1nc(O)c2c(CNc3ccc(C(=O)N[C@@H](CCC(=O)O)C(=O)O)cc3)c[nH]c2n1
46 µM

Could you now look at the following compound, please?
For Thymidylate synthase (Homo sapiens, UniProt P04818), give IC50 of the listed compound: Nc1nc2[nH]cc(CCc3ccc(C(=O)N[C@@H](CCC(=O)O)C(=O)O)cc3)c2c(=O)[nH]1
5.7 µM

----------
# Test system: CCRF-CEM
# Protocol notes: Growth inhibition of CCRF-CEM cells resistant to MTX
# Format: functional, cell-based
# Experimental context: Homo sapiens
Please respond with reported pEC50 for every item in the list.
Give bare numbers, as −log10 of the molar value.

For Nc1nc(O)c2c(CNc3ccc(C(=O)N[C@@H](CCC(=O)O)C(=O)O)cc3)c[nH]c2n1 , write its pEC50.
6.92

New cases:
For COc1ccc(OC)c(NCc2c[nH]c3nc(N)nc(O)c23)c1 , write its pEC50.
6.34

----------
# System name: Bifunctional dihydrofolate reductase-thymidylate synthase (Toxoplasma gondii, UniProt Q07422)
# Sequence (Q07422 whole entry): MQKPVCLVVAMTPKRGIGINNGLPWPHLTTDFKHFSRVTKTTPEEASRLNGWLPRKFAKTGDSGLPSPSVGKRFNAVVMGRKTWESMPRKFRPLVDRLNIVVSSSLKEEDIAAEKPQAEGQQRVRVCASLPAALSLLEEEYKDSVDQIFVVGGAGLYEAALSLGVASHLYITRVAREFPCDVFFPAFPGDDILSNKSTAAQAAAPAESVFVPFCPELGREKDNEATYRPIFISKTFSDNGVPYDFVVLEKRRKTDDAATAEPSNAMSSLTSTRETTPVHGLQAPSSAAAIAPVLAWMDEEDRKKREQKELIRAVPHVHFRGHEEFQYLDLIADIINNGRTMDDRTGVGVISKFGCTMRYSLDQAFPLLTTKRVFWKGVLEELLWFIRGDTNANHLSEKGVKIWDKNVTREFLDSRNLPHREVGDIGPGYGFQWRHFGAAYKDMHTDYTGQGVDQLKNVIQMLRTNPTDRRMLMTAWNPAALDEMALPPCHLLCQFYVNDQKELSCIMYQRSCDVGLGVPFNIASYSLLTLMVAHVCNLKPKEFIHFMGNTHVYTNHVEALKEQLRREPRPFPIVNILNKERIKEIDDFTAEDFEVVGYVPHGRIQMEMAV
# Protocol notes: Inhibitory activity against Toxoplasma gondii dihydrofolate reductase
Please respond with reported IC50 for every item in the list.
Numbers only, in µM.

For COc1cc(OC)cc(N(C)Cc2c[nH]c3nc(N)nc(O)c23)c1 , write its IC50.
4.2

For Nc1nc(O)c2c(CNc3cc(Cl)ccc3Cl)c[nH]c2n1 , write its IC50.
0.66

For Nc1nc(O)c2c(CNc3ccc(C(=O)N[C@@H](CCC(=O)O)C(=O)O)cc3)c[nH]c2n1 , write its IC50.
0.8

Kindly give each listed record's IC50.
1. COc1cc(NCc2c[nH]c3nc(N)nc(O)c23)cc(OC)c1OC
2. COc1ccc(OC)c(N(C)Cc2c[nH]c3nc(N)[nH]c(=O)c23)c1

1: 9.3; 2: 10.3

Kindly give each listed record's IC50.
1. COc1cc(N(C)Cc2c[nH]c3nc(N)[nH]c(=O)c23)cc(OC)c1OC
2. Nc1nc2[nH]cc(CNc3cc(Cl)cc(Cl)c3)c2c(=O)[nH]1

37
4.1

----------
# System name: Dihydrofolate reductase (Homo sapiens)
# Sequence (P00374 whole entry): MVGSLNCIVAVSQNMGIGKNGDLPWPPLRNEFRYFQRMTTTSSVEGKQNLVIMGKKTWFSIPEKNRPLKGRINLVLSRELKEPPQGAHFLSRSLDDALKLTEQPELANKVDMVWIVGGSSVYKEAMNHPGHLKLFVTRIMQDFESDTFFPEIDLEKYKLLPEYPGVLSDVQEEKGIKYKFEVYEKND
Measured attribute: pIC50
One number for each entry, as −log10 of the molar value.

For Nc1nc(O)c2c(CNc3ccc(C(=O)N[C@@H](CCC(=O)O)C(=O)O)cc3)c[nH]c2n1 , write its pIC50.
5.00

----------
# System name: Dihydrofolate reductase (Rattus norvegicus, UniProt Q920D2)
# Sequence (Q920D2 whole entry): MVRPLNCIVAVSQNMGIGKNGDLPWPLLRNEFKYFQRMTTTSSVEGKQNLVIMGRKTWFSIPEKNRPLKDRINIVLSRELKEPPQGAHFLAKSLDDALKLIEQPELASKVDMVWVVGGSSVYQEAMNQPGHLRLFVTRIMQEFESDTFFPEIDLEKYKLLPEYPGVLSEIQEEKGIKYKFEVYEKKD
Measured attribute: pIC50
One number for each entry, as −log10 of the molar value.

For COc1ccc(NCc2c[nH]c3nc(N)nc(O)c23)c(OC)c1 , write its pIC50.
4.80

Kindly give each listed record's pIC50.
1. Nc1nc2[nH]cc(CNc3ccc(Cl)cc3Cl)c2c(=O)[nH]1
2. COc1ccc(OC)c(NCc2c[nH]c3nc(N)nc(O)c23)c1
3. COc1ccc(OC)c(N(C)Cc2c[nH]c3nc(N)[nH]c(=O)c23)c1
4. Nc1nc2[nH]cc(CNc3cc(Cl)cc(Cl)c3)c2c(=O)[nH]1

[4.82, 4.33, 4.25, 4.20]
